Target: T1, human MSLN-FL-his protein (human, UniProt Q13421 296-580)
T1 construct: also called human MSLN full-length protein; hMSLN-FL-his; not shown: His tag
T1 sequence (Q13421 other isoform, or with tags, fused parts or gaps): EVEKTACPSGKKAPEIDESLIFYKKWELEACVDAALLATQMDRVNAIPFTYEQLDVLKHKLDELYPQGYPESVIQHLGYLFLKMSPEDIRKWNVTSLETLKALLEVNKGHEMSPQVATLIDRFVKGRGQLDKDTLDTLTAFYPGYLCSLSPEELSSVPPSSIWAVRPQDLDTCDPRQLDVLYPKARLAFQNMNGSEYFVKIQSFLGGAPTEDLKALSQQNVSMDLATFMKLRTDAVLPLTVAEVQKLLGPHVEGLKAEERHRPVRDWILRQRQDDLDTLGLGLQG
Assay: ELISA, coated MSLN full-length;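 note: binding of chimeric antibodies to plate-bound antigen, read by TMB colour after acid stop, antibody incubated 2 h at 37 °C, negative control antibody run alongside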
The entries below come with measured OD450 at 0.01 nM values attached.
Return type: number; implicit unit OD450.

Entry under test: S009-F2.23.12 (antibody, human IgG1, kappa, V domains shown, Human-murine chimeric antibody, human IgG1/kappa constant regions) VH: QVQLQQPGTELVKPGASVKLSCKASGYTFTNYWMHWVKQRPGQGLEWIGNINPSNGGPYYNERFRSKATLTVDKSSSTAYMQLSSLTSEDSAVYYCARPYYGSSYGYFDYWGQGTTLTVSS VL: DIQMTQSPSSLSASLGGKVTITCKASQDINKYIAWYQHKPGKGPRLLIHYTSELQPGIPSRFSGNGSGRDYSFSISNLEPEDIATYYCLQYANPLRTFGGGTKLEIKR . Its OD450 at 0.01 nM was 0.24

Record S009-F2.58.8 (antibody, human IgG1, kappa, V domains shown, Human-murine chimeric antibody, human IgG1/kappa constant regions) VH: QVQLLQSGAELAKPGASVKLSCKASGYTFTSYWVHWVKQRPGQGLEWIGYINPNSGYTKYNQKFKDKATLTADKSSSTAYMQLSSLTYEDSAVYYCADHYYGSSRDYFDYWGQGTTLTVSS VL: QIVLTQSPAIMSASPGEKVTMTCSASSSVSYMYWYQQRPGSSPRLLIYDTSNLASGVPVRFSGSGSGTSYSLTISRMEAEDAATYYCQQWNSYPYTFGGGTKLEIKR . Reported OD450 at 0.01 nM: 0.09

Please fill in: OD450 at 0.01 nM reported for S009-F2.16.10 (antibody, human IgG1, kappa, V domains shown, Human-murine chimeric antibody, human IgG1/kappa constant regions) VH: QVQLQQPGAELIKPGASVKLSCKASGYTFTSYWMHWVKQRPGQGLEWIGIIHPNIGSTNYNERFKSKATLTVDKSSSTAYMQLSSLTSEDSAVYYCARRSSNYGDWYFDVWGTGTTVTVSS VL: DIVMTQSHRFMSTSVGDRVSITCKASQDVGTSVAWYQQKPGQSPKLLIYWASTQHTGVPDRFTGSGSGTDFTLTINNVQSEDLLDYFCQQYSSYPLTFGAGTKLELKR = 0.41

The binder S009-F2.21.4 (antibody, human IgG1, kappa, V domains shown, Human-murine chimeric antibody, human IgG1/kappa constant regions) VH: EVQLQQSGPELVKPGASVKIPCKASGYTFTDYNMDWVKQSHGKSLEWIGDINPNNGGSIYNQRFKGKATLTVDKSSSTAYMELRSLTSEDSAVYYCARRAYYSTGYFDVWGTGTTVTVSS VL: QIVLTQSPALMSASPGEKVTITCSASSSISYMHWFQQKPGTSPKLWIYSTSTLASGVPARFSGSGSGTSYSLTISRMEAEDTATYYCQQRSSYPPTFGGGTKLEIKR showed OD450 at 0.01 nM equal to 0.41

Reported OD450 at 0.01 nM of S009-F2.47.1 (antibody, human IgG1, kappa, V domains shown, Human-murine chimeric antibody, human IgG1/kappa constant regions) VH: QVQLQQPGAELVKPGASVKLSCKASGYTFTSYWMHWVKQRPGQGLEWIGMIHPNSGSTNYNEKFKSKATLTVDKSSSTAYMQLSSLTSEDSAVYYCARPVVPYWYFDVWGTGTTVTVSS VL: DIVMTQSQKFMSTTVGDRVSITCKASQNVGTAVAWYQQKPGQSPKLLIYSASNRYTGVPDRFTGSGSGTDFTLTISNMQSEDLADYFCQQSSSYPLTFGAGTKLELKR : 0.45
